system: Human primary T cells; experiment: IL-2 ELISA, Human Primary T Cell, Anti-CD3+CD28+ (Example 3); assay type: cell-based; settings: Homo sapiens, T-cell, 24 h, anti-CD3+CD28 stimulation
readout-type: pIC50
Numbers only, as −log10 of the molar value.

A selection of reference data follows.
COc1ccc(Nc2ncc(F)c(N(Cc3ccc4ccccc4c3)C3CC(C)(C)N(C)C(C)(C)C3)n2)cc1OC(F)F ... 5.46
COC(=O)CCN1C(C)(C)CC(Nc2nc(Nc3cc(OC)cc(OC)c3)ncc2F)CC1(C)C ... 5.61
CN1C(C)(C)CC(Nc2nc(Nc3ccc(OC(F)F)c(OC(F)F)c3)ncc2F)CC1(C)C ... 6.69
CN1C(C)(C)CC(Nc2nc(N[C@@H]3CCc4ccccc43)ncc2F)CC1(C)C ... 4.76
CN1C(C)(C)CC(Nc2nc(Nc3ccc4c(c3)n(C)c(=O)n4C)ncc2F)CC1(C)C ... 6.01

Provide reported pIC50 for each item, in the same order as listed.
1. Cc1ccc(Nc2ncc(F)c(N(Cc3ccc4ccccc4c3)C3CC(C)(C)N(C)C(C)(C)C3)n2)cc1C#N
2. CC1(C)CC(Nc2nc(Nc3ccc4c(c3)OCC(=O)N4CCF)ncc2C#N)CC(C)(C)N1

[5.47, 6.59]

---

tested on: Human primary T cells; experiment: IL-2 ELISA, Human Primary T Cell, Anti-CD3+CD28+ (Example 3); assay type: cell-based; settings: Homo sapiens, T-cell, 24 h, anti-CD3+CD28 stimulation
readout-type: pIC50
Numbers only, as −log10 of the molar value.

# count of solved cases: 2
CN1C(C)(C)CC(Nc2nc(Nc3ccc(F)c(C#N)c3)ncc2F)CC1(C)C ... 6.64
COc1cc(Nc2ncc(F)c(N(Cc3cc4c(cc3Br)OCO4)C3CC(C)(C)N(C)C(C)(C)C3)n2)cc(OC)c1 ... 5.33

Please look at the following molecule next.
// pIC50 lookup, molecule = CCn1c(=O)oc2cc(Nc3ncc(F)c(NC4CC(C)(C)N(C)C(C)(C)C4)n3)ccc21 , result: 6.41

---

test system: Human primary T cells; assay: IL-2 ELISA, Human Primary T Cell, Anti-CD3+CD28+ (Example 3); format: cell-based; conditions: Homo sapiens, T-cell, 24 h, anti-CD3+CD28 stimulation
readout-type: pIC50
Numbers only, as −log10 of the molar value.

CN1C(C)(C)CC(Nc2nc(Nc3cccc(-c4cnco4)c3)ncc2F)CC1(C)C ... 6.31
Cc1ccc(C)n1-c1cc(Nc2ncc(F)c(NC3CC(C)(C)N(C)C(C)(C)C3)n2)ccc1OCCN1CCCC1 ... 6.28
COc1cnc(Nc2ccc3c(c2)OCCO3)nc1NC1CC(C)(C)N(C)C(C)(C)C1 ... 4.96

# batch size: 6; output pIC50 per entry
1. CN1C(C)(C)CC(Nc2nc(Nc3cc(Br)cc(C(F)(F)F)c3)ncc2F)CC1(C)C
2. CC1(C)CC(Nc2nc(Nc3ccc4c(c3)OC(C)(C)O4)ncc2F)CC(C)(C)N1
3. CN1C(=O)C(C)(C)Oc2cc(Nc3ncc(F)c(NC4CC(C)(C)N(C)C(C)(C)C4)n3)ccc21
4. CN1CCN(c2ccc(Nc3ncc(Cl)c(NC4CC(C)(C)N(C)C(C)(C)C4)n3)cc2C#N)CC1
5. CN1C(C)(C)CC(Nc2nc(Nc3nc(-c4ccc(Cl)cc4)cs3)ncc2F)CC1(C)C
6. Cc1ccc(C)n1-c1cc(Nc2ncc(F)c(NC3CC(C)(C)N(C)C(C)(C)C3)n2)ccc1OCCN1CCOCC1

[6.26, 5.28, 6.65, 7.04, 6.08, 6.21]
